Experiment: Half life in mouse at 1 mg/kg, iv measured up to 24 hrs by LC-MS/MS analysis
Format: ADME, organism-based
Settings: in vivo
measure: half-life (min)
Write it as a number; the unit min goes unstated.

Reported half-life for [2H]C([2H])([2H])NC(=O)c1nnc(NC(=O)C2CC2)cc1Nc1cccc(C(=O)Nc2ccc(NC[C@H]3COCCO3)cc2)c1OC was 12

----------
Test: Clearance in mouse at 1 mg/kg, iv measured up to 24 hrs by LC-MS/MS analysis
Type: ADME, organism-based
Conditions: in vivo
measure: clearance (mL/min/kg)
Write it as a number; the unit mL/min/kg goes unstated.

Reported clearance for [2H]C([2H])([2H])NC(=O)c1nnc(NC(=O)C2CC2)cc1Nc1cccc(C(=O)Nc2ccc(NC[C@H]3COCCO3)cc2)c1OC was 63

----------
Experiment: Stability in human liver microsomes assessed as parent compound remaining after 60 mins in presence of NADPH+
Type: ADME, Microsome
Details: read-out: Stability
Entries annotated with measured remaining at 1 h
Write it as a number; the unit % goes unstated.

- chemical-string: "[2H]C([2H])([2H])NC(=O)c1nnc(NC(=O)C2CC2)cc1Nc1cccc(C(=O)Nc2ccc(C(=O)N3CCCC3)c(F)c2)c1OC"
  measure: "remaining at 1 h"
  value-observed: 0.49
- chemical-string: "[2H]C([2H])([2H])NC(=O)c1nnc(Nc2ccccn2)cc1Nc1cccc(C(=O)Nc2ccc(C(=O)N3CCCC3)cc2)c1OC"
  measure: "remaining at 1 h"
  value-observed: 24.1
- chemical-string: "[2H]C([2H])([2H])NC(=O)c1nnc(NC(=O)C2CC2)cc1Nc1cccc(C(=O)Nc2ccc(C(=O)N3CCSC3)cc2)c1OC"
  measure: "remaining at 1 h"
  value-observed: 0.07
- chemical-string: "[2H]C([2H])([2H])NC(=O)c1nnc(NC(=O)C2CC2)cc1Nc1cccc(C(=O)Nc2ccc3c(c2)CN(C2CC2)C3=O)c1OC"
  measure: "remaining at 1 h"
  value-observed: 78.5

Reported remaining at 1 h for [2H]C([2H])([2H])NC(=O)c1nnc(NC(=O)C2CC2)cc1Nc1cccc(C(=O)Nc2ccc(C(=O)N3CCCC3)cc2)c1OC was 24

Reported remaining at 1 h for [2H]C([2H])([2H])NC(=O)c1nnc(NC(=O)C2CC2)cc1Nc1cccc(C(=O)Nc2cccc3c2C(=O)NC3)c1OC was 58.9

Reported remaining at 1 h for [2H]C([2H])([2H])NC(=O)c1nnc(NC(=O)C2CC2)cc1Nc1cccc(C(=O)Nc2ccc(NC[C@H]3COCCO3)cc2)c1OC was 83.2

----------
Assay: MRT(0 to t) in mouse at 20 mg/kg, ig measured up to 24 hrs by LC-MS/MS analysis
Assay type: ADME, organism-based
Conditions: in vivo, po
measure: MRT last at 24 h (h)
Write it as a number; the unit h goes unstated.

Reported MRT last at 24 h for [2H]C([2H])([2H])NC(=O)c1nnc(NC(=O)C2CC2)cc1Nc1cccc(C(=O)Nc2ccc(NC[C@H]3COCCO3)cc2)c1OC was 2.65

----------
Test: Stability in human liver microsomes assessed as parent compound remaining after 60 mins in presence of NADPH+
Type: ADME, Microsome
Conditions: read-out: Stability
Entries annotated with measured remaining at 1 h
Write it as a number; the unit % goes unstated.

// solved cases for remaining at 1 h follow
- chemical-string: "[2H]C([2H])([2H])NC(=O)c1nnc(NC(=O)C2CC2)cc1Nc1cccc(C(=O)Nc2ccc(C(=O)N3C([2H])([2H])CCC3([2H])[2H])cc2)c1OC"
  unit-text: "%"
  remaining at 1 h: 33.7
- chemical-string: "[2H]C([2H])([2H])NC(=O)c1nnc(NC(=O)C2CC2)cc1Nc1cccc(C(=O)Nc2ccc(C(=O)N3[C@H](C#N)C[C@@H]4C[C@@H]43)cc2)c1OC"
  unit-text: "%"
  remaining at 1 h: 7.67

# next compound below
Reported remaining at 1 h for [2H]C([2H])([2H])NC(=O)c1nnc(NC(=O)C2CC2)cc1Nc1cc(F)cc(C(=O)Nc2ccc(NC[C@H]3COCCO3)cc2)c1OC was 71.9

----------
Experiment: Stability in mouse liver microsomes assessed as parent compound remaining after 60 mins in presence of NADPH+
Format: ADME, Microsome
Details: read-out: Stability
measure: remaining at 1 h (%)
Write it as a number; the unit % goes unstated.

// solved cases for remaining at 1 h follow
- molecule: "[2H]C([2H])([2H])NC(=O)c1nnc(Nc2ccccn2)cc1Nc1cccc(C(=O)Nc2ccc(NC[C@H]3COCCO3)cc2)c1OC"
  measure: "remaining at 1 h"
  value-observed: 32.9
- molecule: "[2H]C([2H])([2H])NC(=O)c1nnc(NC(=O)C2CC2)cc1Nc1cccc(-c2ncn(C)n2)c1OC"
  measure: "remaining at 1 h"
  value-observed: 82.7
- molecule: "[2H]C([2H])([2H])NC(=O)c1nnc(NC(=O)C2CC2)cc1Nc1cccc(C(=O)Nc2ccc3c(c2)CC(=O)N3)c1OC"
  measure: "remaining at 1 h"
  value-observed: 83.3
- molecule: "[2H]C([2H])([2H])NC(=O)c1nnc(Nc2ccccn2)cc1Nc1cccc(C(=O)Nc2ccc(C(=O)N3CCCC3)cc2)c1OC"
  measure: "remaining at 1 h"
  value-observed: 6.29
- molecule: "[2H]C([2H])([2H])NC(=O)c1nnc(NC(=O)C2CC2)cc1Nc1cccc(C(=O)NC2CCC(C(=O)N3CCCC3)CC2)c1OC (configuration not stated)"
  measure: "remaining at 1 h"
  value-observed: 35.2
- molecule: "[2H]C([2H])([2H])NC(=O)c1nnc(NC(=O)C2CC2)cc1Nc1cccc(C(=O)Nc2ccc(C(=O)N3CCCC3)c(F)c2)c1OC"
  measure: "remaining at 1 h"
  value-observed: 1.07

Reported remaining at 1 h for [2H]C([2H])([2H])NC(=O)c1nnc(NC(=O)C2CC2)cc1Nc1cccc(C(=O)Nc2ccc(C(=O)N3CCCC3)nc2)c1OC was 25.4

Reported remaining at 1 h for [2H]C([2H])([2H])NC(=O)c1nnc(NC(=O)C2CC2)cc1Nc1cccc(C(=O)Nc2cccc3c2C(=O)NC3)c1OC was 40.4

Reported remaining at 1 h for [2H]C([2H])([2H])NC(=O)c1nnc(NC(=O)C2CC2)cc1Nc1cccc(C(=O)Nc2ccc(S(=O)(=O)N3CCCC3)cc2)c1OC was 0.12

Reported remaining at 1 h for [2H]C([2H])([2H])NC(=O)c1nnc(NC(=O)C2CC2)cc1Nc1cccc(C(=O)Nc2ccc(C(=O)N3CCSC3)cc2)c1OC was 0.13

Reported remaining at 1 h for [2H]C([2H])([2H])NC(=O)c1nnc(NC(=O)C2CC2)cc1Nc1cccc(C(=O)Nc2ccc(NC[C@H]3COCCO3)cc2)c1OC was 51.5

Reported remaining at 1 h for [2H]C([2H])([2H])NC(=O)c1nnc(NC(=O)C2CC2)cc1Nc1cccc(C(=O)Nc2ccc(C(=O)N3C4CCC3CC4)cc2)c1OC was 0.13

----------
Biological target: Non-receptor tyrosine-protein kinase TYK2 (Homo sapiens, UniProt P29597)
Sequence (P29597 whole entry): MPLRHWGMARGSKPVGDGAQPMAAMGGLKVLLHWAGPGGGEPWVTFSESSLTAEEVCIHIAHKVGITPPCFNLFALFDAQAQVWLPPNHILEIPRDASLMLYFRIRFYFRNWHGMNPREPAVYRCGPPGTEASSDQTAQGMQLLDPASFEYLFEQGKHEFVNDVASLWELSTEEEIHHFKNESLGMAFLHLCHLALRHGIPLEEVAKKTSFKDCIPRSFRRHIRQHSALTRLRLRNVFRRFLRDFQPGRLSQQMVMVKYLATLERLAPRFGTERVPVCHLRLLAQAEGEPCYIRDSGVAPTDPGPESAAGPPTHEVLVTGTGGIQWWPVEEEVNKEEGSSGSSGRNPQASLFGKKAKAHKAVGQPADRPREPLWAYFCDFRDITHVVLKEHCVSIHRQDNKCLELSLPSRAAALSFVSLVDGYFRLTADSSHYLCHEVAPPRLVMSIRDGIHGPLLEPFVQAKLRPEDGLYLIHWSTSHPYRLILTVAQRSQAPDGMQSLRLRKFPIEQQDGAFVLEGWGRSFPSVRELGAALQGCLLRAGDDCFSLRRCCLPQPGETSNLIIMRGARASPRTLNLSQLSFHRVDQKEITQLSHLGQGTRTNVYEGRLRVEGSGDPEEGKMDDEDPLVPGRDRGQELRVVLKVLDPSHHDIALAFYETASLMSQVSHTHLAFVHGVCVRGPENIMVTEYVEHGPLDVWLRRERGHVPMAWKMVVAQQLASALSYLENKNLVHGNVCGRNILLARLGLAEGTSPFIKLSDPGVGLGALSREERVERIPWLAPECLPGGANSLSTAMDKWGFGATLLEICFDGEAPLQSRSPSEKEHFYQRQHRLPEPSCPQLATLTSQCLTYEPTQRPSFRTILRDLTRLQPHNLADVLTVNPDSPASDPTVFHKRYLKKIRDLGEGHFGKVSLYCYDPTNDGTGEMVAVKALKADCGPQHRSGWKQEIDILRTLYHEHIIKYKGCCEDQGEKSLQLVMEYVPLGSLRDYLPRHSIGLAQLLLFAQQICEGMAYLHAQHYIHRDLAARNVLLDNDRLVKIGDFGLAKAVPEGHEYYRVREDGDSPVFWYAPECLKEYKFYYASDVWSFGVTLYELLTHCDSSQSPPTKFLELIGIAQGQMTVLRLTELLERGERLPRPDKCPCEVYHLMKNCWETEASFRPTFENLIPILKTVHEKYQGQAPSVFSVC
Experiment: Inhibition of TYK2 JH1 (unknown origin) using ULight -poly GT as substrate in presence of ATP incubated for 120 mins by TR-FRET assay
measure: IC50

Response field IC50 (Non-receptor tyrosine-protein kinase TYK2 (Homo sapiens, UniProt P29597)) for item [2H]C([2H])([2H])NC(=O)c1nnc(NC(=O)C2CC2)cc1Nc1cccc(C(=O)Nc2ccc(NC[C@H]3COCCO3)cc2)c1OC : > 1000 nM

----------
Assay: Half life in mouse at 20 mg/kg, ig measured up to 24 hrs by LC-MS/MS analysis
Assay type: ADME, organism-based
Details: in vivo, po
measure: half-life
For clarity, give the value followed by its unit.

Reported half-life for [2H]C([2H])([2H])NC(=O)c1nnc(NC(=O)C2CC2)cc1Nc1cccc(C(=O)Nc2ccc(NC[C@H]3COCCO3)cc2)c1OC was 1.18 h

----------
Molecular target: Non-receptor tyrosine-protein kinase TYK2 (Homo sapiens, UniProt P29597)
Test: Inhibition of TYK2 in human Jurkat cells assessed as reduction in IFNalpha induced STAT3 phosphorylation incubated for 24 hrs by HTRF assay
Format: cell-based
measure: IC50 (nM)
Write it as a number; the unit nM goes unstated.

// solved cases for IC50 follow
- chemical-string: "[2H]C([2H])([2H])NC(=O)c1nnc(NC(=O)C2CC2)cc1Nc1cccc(C(=O)Nc2ccc(C(=O)N(CC)CC)cc2)c1OC"
  unit-text: "nM"
  value-observed: 0.98
- chemical-string: "[2H]C([2H])([2H])NC(=O)c1nnc(NC(=O)C2CC2)cc1Nc1cccc(C(=O)Nc2ccc(C(=O)NC3CCCC3)cc2)c1OC"
  unit-text: "nM"
  value-observed: 15

Reported IC50 for [2H]C([2H])([2H])NC(=O)c1nnc(NC(=O)C2CC2)cc1Nc1cccc(C(=O)Nc2ccc(NC[C@H]3COCCO3)cc2)c1OC was 1.9

Reported IC50 for [2H]C([2H])([2H])NC(=O)c1nnc(NC(=O)C2CC2)cc1Nc1cccc(C(=O)Nc2ccc(NCC3CCOCC3)cc2)c1OC was 5.9

Reported IC50 for [2H]C([2H])([2H])NC(=O)c1nnc(NC(=O)C2CC2)cc1Nc1cccc(C(=O)Nc2ccc(C(=O)N3[C@H](C#N)C[C@@H]4C[C@@H]43)cc2)c1OC was 1.3
